pIC50 overview
System tested: TRPM8 (Homo sapiens)
Sequence (Q7Z2W7 whole entry): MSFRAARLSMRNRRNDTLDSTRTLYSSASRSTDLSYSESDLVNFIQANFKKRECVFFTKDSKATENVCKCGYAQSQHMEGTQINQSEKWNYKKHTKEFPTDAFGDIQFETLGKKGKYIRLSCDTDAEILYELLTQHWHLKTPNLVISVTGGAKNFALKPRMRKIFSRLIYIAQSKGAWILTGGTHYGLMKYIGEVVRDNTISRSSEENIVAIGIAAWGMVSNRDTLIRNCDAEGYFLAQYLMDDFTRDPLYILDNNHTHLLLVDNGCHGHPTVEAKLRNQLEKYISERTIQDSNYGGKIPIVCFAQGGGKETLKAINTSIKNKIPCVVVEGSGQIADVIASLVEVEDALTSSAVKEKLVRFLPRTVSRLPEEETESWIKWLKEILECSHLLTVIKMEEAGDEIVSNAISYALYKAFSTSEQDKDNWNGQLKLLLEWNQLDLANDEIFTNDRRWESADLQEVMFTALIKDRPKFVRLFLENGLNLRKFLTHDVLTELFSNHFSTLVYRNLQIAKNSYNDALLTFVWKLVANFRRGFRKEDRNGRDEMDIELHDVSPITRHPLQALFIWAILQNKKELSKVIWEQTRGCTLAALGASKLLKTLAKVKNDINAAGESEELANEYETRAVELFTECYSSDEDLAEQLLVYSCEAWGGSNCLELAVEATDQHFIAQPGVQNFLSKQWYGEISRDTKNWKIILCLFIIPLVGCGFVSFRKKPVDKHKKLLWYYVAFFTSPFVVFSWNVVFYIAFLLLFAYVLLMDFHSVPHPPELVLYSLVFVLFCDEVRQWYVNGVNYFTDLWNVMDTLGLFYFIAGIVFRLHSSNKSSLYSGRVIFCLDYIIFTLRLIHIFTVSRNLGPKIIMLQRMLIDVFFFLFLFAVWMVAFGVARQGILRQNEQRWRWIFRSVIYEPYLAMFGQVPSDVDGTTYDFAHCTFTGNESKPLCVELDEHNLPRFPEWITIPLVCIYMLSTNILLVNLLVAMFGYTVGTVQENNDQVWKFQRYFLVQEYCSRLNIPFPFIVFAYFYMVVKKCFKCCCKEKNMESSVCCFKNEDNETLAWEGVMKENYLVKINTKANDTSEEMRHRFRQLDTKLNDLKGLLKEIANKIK
Assay overview: Selectivity Ca2+ flux assay, TRPM8 stably over-expressed in HEK-293 cells
Condition summary: agonist icilin (50 μM)
pIC50: −log10 of the molar value. Counter-ions that a name gives are not always drawn.
Measured quantity: pIC50

>>> experimental_result("N#Cc1ccc(OCC2(CO)CN(S(=O)(=O)c3ccc(Cl)cc3Cl)C2)cc1F [Compound 11]")
4.84
>>> experimental_result("CNCC1(COc2ccc(C#N)c(F)c2)CN(S(=O)(=O)c2ccc(Cl)cc2Cl)C1 [Compound 16, hydrochloride]")
4.75
>>> experimental_result("N#Cc1ccc(OCC2(CNCCO)CN(S(=O)(=O)c3ccc(Cl)cc3Cl)C2)cc1F [Compound 17]")
4.60
>>> experimental_result("Cl.N#Cc1ccc(OCC2(N)CN(S(=O)(=O)c3ccc(Cl)cc3Cl)C2)cc1F [Compound 52, hydrochloride salt]")
4.44

* * *

The following compounds each carry a recorded pIC50 for human TRPV4 (Homo sapiens).
pIC50: −log10 of the molar value. Counter-ions that a name gives are not always drawn.
Measured quantity: pIC50

>>> experimental_result("Cc1ccc(S(=O)(=O)N2CC(CO)(COc3ccc(C#N)c(F)c3)C2)cc1 [Compound 73]")
5.52
>>> experimental_result("CCNCC1(COc2ccc(C#N)c(F)c2)CN(S(=O)(=O)c2ccc(Cl)cc2Cl)C1 [Compound 25, hydrochloride]")
9.00
>>> experimental_result("CC1(COc2ccc(C#N)cc2)CN(S(=O)(=O)c2ccc(Cl)cc2Cl)C1 [Compound 1]")
6.29
>>> experimental_result("N#Cc1ccc(S(=O)(=O)N2CC(CO)(COc3ccc(C#N)c(F)c3)C2)c(Cl)c1 [Compound 60]")
7.27
>>> experimental_result("N#Cc1ccc(OCC2(CNCC3CCOC3)CN(S(=O)(=O)c3ccc(Cl)cc3Cl)C2)cc1F (centres unmarked) [Compound 23, hydrochloride]")
8.39
>>> experimental_result("N#Cc1ccc(OCC2(CNCC(N)=O)CN(S(=O)(=O)c3ccc(Cl)cc3Cl)C2)cc1F [Compound 20, hydrochloride]")
6.82

* * *

System tested: UniProtKB Q9HBA0
Where a name gives a salt, the structure may show the parent alone.
IC50 overview
Measured quantity: IC50

>>> experimental_result("Cc1ccc(OCC2(CO)CN(S(=O)(=O)c3ccc(Cl)cc3Cl)C2)cc1 [Compound 92]")
"~5 µM"
>>> experimental_result("C[C@H](O)CNCC1(COc2ccc(C#N)c(F)c2)CN(S(=O)(=O)c2ccc(Cl)cc2Cl)C1 [Compound 31, hydrochloride]")
"0.0004 µM"
>>> experimental_result("O=S(=O)(c1ccc(Cl)cc1Cl)N1CC(CO)(COc2ccc(F)c(F)c2)C1 [Compound 87]")
"1 to 3 µM"

* * *

System tested: human TRPV4 (Homo sapiens)
Sequence (Q9HBA0 whole entry): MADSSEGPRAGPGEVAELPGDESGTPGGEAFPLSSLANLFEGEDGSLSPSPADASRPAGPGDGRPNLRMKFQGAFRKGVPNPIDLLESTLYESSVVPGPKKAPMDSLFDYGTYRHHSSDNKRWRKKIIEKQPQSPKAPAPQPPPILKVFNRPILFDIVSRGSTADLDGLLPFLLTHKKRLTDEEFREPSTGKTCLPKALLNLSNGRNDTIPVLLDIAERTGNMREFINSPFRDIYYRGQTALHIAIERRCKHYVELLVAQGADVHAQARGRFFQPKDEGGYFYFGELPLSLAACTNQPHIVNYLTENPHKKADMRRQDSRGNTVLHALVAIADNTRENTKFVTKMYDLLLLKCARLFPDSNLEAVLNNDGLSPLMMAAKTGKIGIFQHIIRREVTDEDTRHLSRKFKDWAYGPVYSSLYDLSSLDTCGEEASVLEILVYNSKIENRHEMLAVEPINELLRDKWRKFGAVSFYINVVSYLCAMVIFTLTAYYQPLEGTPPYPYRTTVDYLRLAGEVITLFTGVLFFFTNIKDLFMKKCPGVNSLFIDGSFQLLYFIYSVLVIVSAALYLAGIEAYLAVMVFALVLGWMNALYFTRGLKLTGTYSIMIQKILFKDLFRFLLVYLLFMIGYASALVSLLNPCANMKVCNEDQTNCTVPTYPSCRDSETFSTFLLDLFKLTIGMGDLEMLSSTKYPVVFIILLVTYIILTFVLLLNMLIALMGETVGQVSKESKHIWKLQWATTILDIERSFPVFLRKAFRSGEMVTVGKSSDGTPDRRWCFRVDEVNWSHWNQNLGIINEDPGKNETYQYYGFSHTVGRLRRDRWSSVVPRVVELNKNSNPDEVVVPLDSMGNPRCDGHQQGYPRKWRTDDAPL
pIC50: −log10 of the molar value. Counter-ions that a name gives are not always drawn.
Response key: 1.0 means pIC50 >= 8; 0.0 means pIC50 < 8.

>>> category_label("COc1cc(C#N)c(F)cc1OCC1(CO)CN(S(=O)(=O)c2ccccc2C#N)C1")
0.0
>>> category_label("CCOc1cc(OCC2(COC(=O)c3ccc(Br)cc3)CN(S(=O)(=O)c3ccc(Cl)cc3Cl)C2)ccc1C#N")
0.0
>>> category_label("CC(O)CNCC1(COc2ccc(C#N)c(F)c2)CN(S(=O)(=O)c2ccc(Cl)cc2Cl)C1 (stereo not drawn) [Compound 24, hydrochloride]")
1.0
>>> category_label("N#Cc1ccc(NCC2(CO)CN(S(=O)(=O)c3ccc(Cl)cc3Cl)C2)cc1F")
0.0
>>> category_label("CNCC1(COc2ccc(C#N)c(F)c2)CN(S(=O)(=O)c2ccc(Cl)cc2Cl)C1 [Compound 16, hydrochloride]")
1.0
>>> category_label("Cc1cc(C#N)ccc1S(=O)(=O)N1CC(CO)(COc2ccc(C#N)c(F)c2)C1")
0.0
>>> category_label("N#Cc1ccc(OCC2(CO)CN(S(=O)(=O)c3ccc(Cl)cc3)C2)cc1F")
0.0
>>> category_label("N#Cc1ccc(OCC2(CNCc3nccs3)CN(S(=O)(=O)c3ccc(Cl)cc3Cl)C2)cc1F [Compound 22, hydrochloride]")
0.0
>>> category_label("CCOC(=O)C1(COc2ccc(C#N)c(F)c2)CN(S(=O)(=O)c2ccc(Cl)cc2Cl)C1")
0.0
>>> category_label("CS(=O)(=O)c1ccc(S(=O)(=O)N2CC(CO)(COc3ccc(C#N)c(F)c3)C2)cc1")
0.0
>>> category_label("C[C@@H](O)CNCC1(COc2ccc(C#N)c(F)c2)CN(S(=O)(=O)c2ccc(Cl)cc2Cl)C1 [Compound 30, hydrochloride]")
1.0
>>> category_label("N#Cc1ccc(OCC2(CN[C@H]3CC[C@@H](O)CC3)CN(S(=O)(=O)c3ccc(Cl)cc3Cl)C2)cc1F [Compound 39, hydrochloride]")
1.0

* * *

IC50 overview
System tested: TRPV1 (Homo sapiens, UniProt Q8NER1)
Sequence (Q8NER1 whole entry): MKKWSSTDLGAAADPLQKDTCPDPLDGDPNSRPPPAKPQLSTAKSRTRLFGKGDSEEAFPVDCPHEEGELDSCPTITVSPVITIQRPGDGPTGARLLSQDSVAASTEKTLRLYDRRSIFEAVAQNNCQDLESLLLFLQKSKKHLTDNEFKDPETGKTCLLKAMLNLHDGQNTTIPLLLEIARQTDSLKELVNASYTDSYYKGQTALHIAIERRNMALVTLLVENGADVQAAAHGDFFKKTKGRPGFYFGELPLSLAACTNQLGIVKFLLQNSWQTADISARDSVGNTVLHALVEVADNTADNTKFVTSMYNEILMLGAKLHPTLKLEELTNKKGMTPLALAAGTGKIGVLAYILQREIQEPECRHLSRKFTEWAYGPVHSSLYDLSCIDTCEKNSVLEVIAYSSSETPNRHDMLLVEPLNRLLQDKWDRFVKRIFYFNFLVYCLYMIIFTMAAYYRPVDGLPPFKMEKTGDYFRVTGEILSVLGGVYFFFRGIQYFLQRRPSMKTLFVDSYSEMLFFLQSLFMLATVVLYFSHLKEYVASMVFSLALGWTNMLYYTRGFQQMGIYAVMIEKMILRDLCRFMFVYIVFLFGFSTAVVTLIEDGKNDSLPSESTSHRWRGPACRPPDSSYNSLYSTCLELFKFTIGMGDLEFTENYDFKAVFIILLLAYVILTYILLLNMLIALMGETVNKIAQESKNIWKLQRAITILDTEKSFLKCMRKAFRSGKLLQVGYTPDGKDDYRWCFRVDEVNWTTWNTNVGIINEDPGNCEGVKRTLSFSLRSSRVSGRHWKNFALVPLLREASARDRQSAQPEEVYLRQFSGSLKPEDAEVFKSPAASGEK
Assay overview: Selectivity Ca2+ flux assay, TRPV1 stably overexpressed in human lung epithelial (BEAS-2B) cells
Condition summary: agonist nonivamide (5 μM)
Structures can show the parent of a compound that is named as a salt.
Measured quantity: IC50 (µM)

>>> experimental_result("CNCC1(COc2ccc(C#N)c(F)c2)CN(S(=O)(=O)c2ccc(Cl)cc2Cl)C1 [Compound 16, hydrochloride]")
6
>>> experimental_result("Cl.N#Cc1ccc(OCC2(N)CN(S(=O)(=O)c3ccc(Cl)cc3Cl)C2)cc1F [Compound 52, hydrochloride salt]")
60
>>> experimental_result("N#Cc1ccc(OCC2(CNCCO)CN(S(=O)(=O)c3ccc(Cl)cc3Cl)C2)cc1F")
5.3
>>> experimental_result("N#Cc1ccc(OCC2(CO)CN(S(=O)(=O)c3ccc(Cl)cc3Cl)C2)cc1F")
24.3

* * *

IC50 overview
System tested: TRPV3 (Homo sapiens, UniProt Q8NET8)
Sequence (Q8NET8 1-790): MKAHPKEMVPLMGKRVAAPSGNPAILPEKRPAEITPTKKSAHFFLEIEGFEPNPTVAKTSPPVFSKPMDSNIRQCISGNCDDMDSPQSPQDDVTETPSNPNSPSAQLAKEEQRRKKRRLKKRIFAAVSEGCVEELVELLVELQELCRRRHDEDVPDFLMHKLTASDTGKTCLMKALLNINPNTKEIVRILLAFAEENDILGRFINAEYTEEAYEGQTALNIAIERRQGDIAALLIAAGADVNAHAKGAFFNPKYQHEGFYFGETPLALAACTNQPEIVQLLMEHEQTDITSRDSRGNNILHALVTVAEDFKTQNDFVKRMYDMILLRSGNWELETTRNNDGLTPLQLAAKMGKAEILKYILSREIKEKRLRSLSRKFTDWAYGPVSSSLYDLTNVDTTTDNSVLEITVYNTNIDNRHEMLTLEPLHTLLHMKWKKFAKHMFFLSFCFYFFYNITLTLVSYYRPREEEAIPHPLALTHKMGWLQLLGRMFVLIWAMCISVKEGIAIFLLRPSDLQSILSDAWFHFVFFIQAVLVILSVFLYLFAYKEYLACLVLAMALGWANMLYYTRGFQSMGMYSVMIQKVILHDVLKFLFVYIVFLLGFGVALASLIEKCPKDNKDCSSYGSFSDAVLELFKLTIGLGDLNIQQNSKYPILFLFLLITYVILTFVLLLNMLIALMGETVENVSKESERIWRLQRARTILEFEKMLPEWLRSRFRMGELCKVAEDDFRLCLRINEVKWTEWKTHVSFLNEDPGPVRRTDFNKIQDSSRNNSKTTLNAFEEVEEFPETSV
Assay overview: Selectivity Ca2+ flux assay, TRPV3 stably over-expressed in HEK-293 cells
Condition summary: agonist carvacrol (300 μM)
Counter-ions that a name gives are not always drawn.
Measured quantity: IC50

>>> experimental_result("N#Cc1ccc(OCC2(CNCCO)CN(S(=O)(=O)c3ccc(Cl)cc3Cl)C2)cc1F")
"> 50 µM"
>>> experimental_result("Cl.N#Cc1ccc(OCC2(N)CN(S(=O)(=O)c3ccc(Cl)cc3Cl)C2)cc1F [Compound 52, hydrochloride salt]")
"> 100 µM"
>>> experimental_result("CNCC1(COc2ccc(C#N)c(F)c2)CN(S(=O)(=O)c2ccc(Cl)cc2Cl)C1 [Compound 16, hydrochloride]")
"> 100 µM"
>>> experimental_result("N#Cc1ccc(OCC2(CO)CN(S(=O)(=O)c3ccc(Cl)cc3Cl)C2)cc1F")
"> 100 µM"

* * *

The following compounds each carry a recorded IC50 for human TRPV4 (Homo sapiens, UniProt Q9HBA0).
Measured quantity: IC50

>>> experimental_result("N#Cc1cccc(OCC2(CO)CN(S(=O)(=O)c3ccc(Cl)cc3Cl)C2)c1 [Compound 89]")
"1000 to 3000 nM"
>>> experimental_result("Cl.N#Cc1ccc(OCC2(N)CN(S(=O)(=O)c3ccc(Cl)cc3Cl)C2)cc1F [Compound 52, hydrochloride salt]")
"24 to 66 nM"
>>> experimental_result("N#Cc1ccc(OCC2(CN)CN(S(=O)(=O)c3ccc(Cl)cc3Cl)C2)cc1F [Compound 44]")
"8.7 nM"
